// provenance: patent US20030036633A1

Tested system: cloned human B1 bradykinin receptor in transiently transfected COS-7 cells (COS 33E9) (Homo sapiens)
Construct: the full-length open reading frame of the B1 DNA (encoding a protein of about 40.4 kDa =about base 209 to about base 1267); expressed in transfected cells; host or cells: COS-7 cells, transient electroporation of clone 33E9 (pcDNA3 library vector)
Sequence (P46663 whole entry): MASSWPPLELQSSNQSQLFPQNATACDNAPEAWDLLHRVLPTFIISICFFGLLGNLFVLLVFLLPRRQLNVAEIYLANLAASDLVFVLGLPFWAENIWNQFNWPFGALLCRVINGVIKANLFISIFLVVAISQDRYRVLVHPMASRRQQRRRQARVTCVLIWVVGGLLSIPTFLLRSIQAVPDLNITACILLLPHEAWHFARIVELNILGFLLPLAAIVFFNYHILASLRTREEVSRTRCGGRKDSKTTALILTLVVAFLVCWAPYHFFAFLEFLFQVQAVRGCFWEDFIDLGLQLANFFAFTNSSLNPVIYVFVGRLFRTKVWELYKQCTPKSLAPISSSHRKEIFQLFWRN
Assay comment: Displacement of 1 nM [3H]des-Arg10kallidin, membrane binding assay, COS 33E9
Measurement parameters: displacement of 1 nM [3H]des-Arg10kallidin; membranes of transiently transfected COS-7 cells; read-out: IC50, COS 33E9
Residues, ends and D or L forms follow the SMILES beside them.
IC50 listing for selected molecules.

Some entries whose results are on file:
NC(N)=NCCC[C@@H](N)C(=O)N[C@@H](CCCN=C(N)N)C(=O)N1CCC[C@H]1C(=O)N1C[C@H](O)C[C@H]1C(=O)NCC(=O)N[C@@H](Cc1cccs1)C(=O)N[C@@H](CO)C(=O)N1Cc2ccccc2C[C@@H]1C(=O)N1[C@H](C(=O)N[C@@H](CCCN=C(N)N)C(=O)O)C[C@@H]2CCCC[C@@H]21 [Hoe 140]	> 10 µM
CC[C@H](C)[C@@H]1NC(=O)[C@H](Cc2ccc(O)cc2)NC(=O)[C@@H](N)CSSC[C@@H](C(=O)N2CCC[C@H]2C(=O)N[C@@H](CC(C)C)C(=O)NCC(N)=O)NC(=O)[C@H](CC(N)=O)NC(=O)[C@H](CCC(N)=O)NC1=O [Oxytocin]	> 10 µM

Turning now to a further molecule:
IC50 for N=C(N)NCCC[C@H](NC(=O)[C@H](Cc1ccccc1)NC(=O)[C@@H]1CCCN1C(=O)[C@H](CO)NC(=O)[C@H](Cc1ccccc1)NC(=O)CNC(=O)[C@@H]1CCCN1C(=O)[C@@H]1CCCN1)C(=O)O [Bradykinin(2-9)] (H-PPGFSPFR-OH; N-terminus and C-terminus assumed) ?
> 10 µM
